Target Or System: Palmitoleoyl-protein carboxylesterase NOTUM (Homo sapiens, UniProt Q6P988, C330S)
Sequence (Q6P988 20-496 C330S limits assumed): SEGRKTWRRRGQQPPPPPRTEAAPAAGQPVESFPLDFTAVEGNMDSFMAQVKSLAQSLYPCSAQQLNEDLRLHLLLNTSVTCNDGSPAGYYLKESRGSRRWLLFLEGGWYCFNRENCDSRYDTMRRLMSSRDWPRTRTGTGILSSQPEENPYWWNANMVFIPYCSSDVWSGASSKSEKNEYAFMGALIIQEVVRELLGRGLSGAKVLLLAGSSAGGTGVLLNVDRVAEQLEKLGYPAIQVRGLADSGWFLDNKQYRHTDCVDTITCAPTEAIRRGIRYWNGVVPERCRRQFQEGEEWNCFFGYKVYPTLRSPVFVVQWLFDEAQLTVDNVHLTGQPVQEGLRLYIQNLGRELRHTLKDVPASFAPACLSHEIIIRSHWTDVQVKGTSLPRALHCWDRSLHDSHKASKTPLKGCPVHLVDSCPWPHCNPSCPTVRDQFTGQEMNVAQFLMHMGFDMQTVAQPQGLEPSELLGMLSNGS
Procedure Summary: Inhibition of human Notum (S81 to T451 residues) Cys330Ser mutant expressed in HEK293S GnTI cells using OPTS as substrate incubated for 40 mins by fluorescence based assay
Reported Property: IC50 (nM)

- Cc1cc(C(=O)O)c(C)n1-c1cccc(C(F)(F)F)c1: 1500
- COCCNC(=O)C1CCN(c2ccc(Cl)c(C(F)(F)F)c2)C1 (stereo unspecified): 3500
- O=C(O)C1CCN(c2ccc(F)c(C(F)(F)F)c2)C1 (racemic): 2500
- Cc1c(C(=O)O)cc(C(F)(F)F)n1-c1ccccc1: 22000
- Cc1cc(C(=O)O)c(C)n1-c1ccc(Cl)c(C(F)(F)F)c1: 2100
- Cc1cc(C(=O)O)c(C)n1-c1cccc(C(C)C)c1: 360
- CN1CCN(C(=O)C2CCN(c3ccc(Cl)c(C(F)(F)F)c3)C2)CC1=O (stereo unspecified): 3100
- COc1cccc(-n2c(C)cc(C(=O)O)c2C)c1: 1500
- N#Cc1cccc(N2CCC(C(=O)O)C2)c1 (racemic): 42000
- Cc1cccc(-n2c(C)cc(C(=O)O)c2C)c1: 1500
- Cc1[nH]c(C(F)(F)F)cc1C(=O)O: 6700
- O=C(O)C1CCN(c2ccc(Cl)c(Cl)c2)C1 (racemic): 1200
- Cc1cc(C(=O)O)c(C)n1-c1cccc(F)c1: 1500
- Cc1c(C(=O)O)ccn1-c1ccccc1: 3800
- Cc1cc(C(=O)O)c(C)n1-c1cccc(C2CC2)c1: 580
- Cc1cc(C(=O)O)c(C)n1-c1cccc(Cl)c1: 430
- O=C(O)C1CCN(c2ccc(C(F)(F)F)c(Cl)c2)C1 (racemic): 8500
- Cc1cc(C(=O)O)c(C)n1-c1ccccc1Cl: 2300
- FC(F)(F)c1cc(N2CCC(c3nnco3)C2)ccc1Cl (stereo unspecified): 24000
- Cc1cc(C(=O)O)c(C)n1-c1ccc(F)cc1: 1900
- CCOc1cccc(-n2c(C)cc(C(=O)O)c2C)c1: 640
- O=C(O)C1CCN(c2ccc(Cl)cc2)C1 (racemic): 19000
- O=C(O)C1CCN(c2cc(Cl)cc(Cl)c2)C1 (racemic): 11000
- Cc1cc(C(=O)O)c(C)n1-c1ccccc1F: 3300

====

compounds and their reported IC50
Target Or System: Palmitoleoyl-protein carboxylesterase NOTUM (Homo sapiens, UniProt Q6P988, C330S)
Procedure Summary: Inhibition of human Notum (S81 to T451 residues) Cys330Ser mutant expressed in HEK293S GnTI cells using OPTS as substrate incubated for 40 mins by fluorescence based assay
Reported Property: IC50 (µM)

• O=C(O)C1CCN(c2c(Cl)cccc2Cl)C1 (racemic) = 26
• Cc1c[nH]c(C)c1C(=O)O = 100
• O=C(C1CCN(c2ccc(Cl)c(C(F)(F)F)c2)C1)N1CCOCC1 (centres undefined) = 9.7
• CNC(=O)C1CCN(c2ccc(Cl)c(C(F)(F)F)c2)C1 (centres undefined) = 1.3

====

Target Or System: Palmitoleoyl-protein carboxylesterase NOTUM (Homo sapiens, UniProt Q6P988, C330S)
Procedure Summary: Inhibition of human Notum (S81 to T451 residues) Cys330Ser mutant expressed in HEK293S GnTI cells using OPTS as substrate incubated for 40 mins by fluorescence based assay
pIC50: −log10 of the molar value.
Classification field: enter yes for pIC50 values not below 5, no for values below it.

- Cc1cc(C(=O)O)c(C)n1-c1ccc(Cl)cc1: yes
- O=C(O)C1CCN(c2ccc(C(F)(F)F)cc2)C1 (racemic): no
- O=C(C1CCN(c2ccc(Cl)c(C(F)(F)F)c2)C1)N1CC(F)(F)C1 (configuration not stated): yes
- Cc1ccc(-n2c(C)cc(C(=O)O)c2C)cc1: yes
- Cc1cc(C(=O)O)c(C)n1-c1cccc(C2CC2)c1F: yes
- Cc1cc(C(=O)O)c(C)n1-c1cccc(C(C)(C)C)c1: yes
- O=C(C1CCN(c2ccc(Cl)c(C(F)(F)F)c2)C1)N1CCCC1 (configuration not stated): yes
- O=C(O)C1CCN(c2cccc(Cl)c2)C1 (racemic): no
- Cc1cc(C(=O)O)c(C)n1-c1ccc(Cl)cc1Cl: yes
- Cc1cc(C(=O)O)c(C)n1Cc1ccccc1: no

====

Procedure Summary: Apparent permeability from basolateral to apical side in MDCK2-MDR1 cells at 10 uM measured up to 120 mins by LC-MS/MS analysis
Assay type: ADME, cell-based, Canis lupus familiaris
Experimental Parameters: dog, MDCK-MDR1
compounds and their reported Papp B→A at 2 h, 10 µM
Reported Property: Papp B→A at 2 h, 10 µM (×10⁻⁶ cm/s)

* Cc1cc(C(=O)O)c(C)n1-c1cccc(C(C)C)c1F | 43
* O=C(C1CCN(c2ccc(Cl)c(C(F)(F)F)c2)C1)N1CC(F)(F)C1 (centres undefined) | 10
* O=c1[nH]nc(C2CCN(c3ccc(Cl)c(C(F)(F)F)c3)C2)o1 (centres undefined) | 19
* O=C(O)[C@H]1CCN(c2ccc(Cl)c(C(F)(F)F)c2)C1 | 43

====

compounds and their reported microsomal CLint at 1 µM
Procedure Summary: Intrinsic clearance in mouse liver microsomes at 1 uM measured up to 60 mins in presence of NADPH by LC-MS/MS analysis
Format: ADME, Microsome
Experimental Parameters: read-out: CLH
Reported Property: microsomal CLint at 1 µM (µL/min/mg)

• O=C(O)[C@H]1CCN(c2ccc(Cl)c(C(F)(F)F)c2)C1 = 2.5
• O=C(C1CCN(c2ccc(Cl)c(C(F)(F)F)c2)C1)N1CC(F)(F)C1 (centres undefined) = 21
• Cc1cc(C(=O)O)c(C)n1-c1cccc(C(C)C)c1F = 52
• O=c1[nH]nc(C2CCN(c3ccc(Cl)c(C(F)(F)F)c3)C2)o1 (centres undefined) = 10

====

compounds and their reported chromatographic logD
Procedure Summary: Chromatographic hydrophobicity index, log D of the compound at pH 7.4
Assay type: physicochemical
Experimental Parameters: buffer
Reported Property: chromatographic logD

- O=C(O)[C@H]1CCN(c2ccc(Cl)c(C(F)(F)F)c2)C1: 1.5
- Cc1cc(C(=O)O)c(C)n1-c1cccc(C(C)C)c1F: 3.1
- O=c1[nH]nc(C2CCN(c3ccc(Cl)c(C(F)(F)F)c3)C2)o1 (centres undefined): 3.5
- O=C(C1CCN(c2ccc(Cl)c(C(F)(F)F)c2)C1)N1CC(F)(F)C1 (centres undefined): 4

====

Procedure Summary: Apparent permeability from apical to basolateral side in MDCK2-MDR1 cells at 10 uM measured up to 120 mins by LC-MS/MS analysis
Assay type: ADME, cell-based, Canis lupus familiaris
Experimental Parameters: dog, MDCK-MDR1
Reported Property: Papp A→B at 2 h, 10 µM (×10⁻⁶ cm/s)

- O=c1[nH]nc(C2CCN(c3ccc(Cl)c(C(F)(F)F)c3)C2)o1 (centres undefined): 13
- Cc1cc(C(=O)O)c(C)n1-c1cccc(C(C)C)c1F: 46
- O=C(C1CCN(c2ccc(Cl)c(C(F)(F)F)c2)C1)N1CC(F)(F)C1 (centres undefined): 8
- O=C(O)[C@H]1CCN(c2ccc(Cl)c(C(F)(F)F)c2)C1: 39

====

Procedure Summary: Aqueous solubility at pH 7.4
Format: physicochemical
Experimental Parameters: buffer
molecules and their reported solubility
Reported Property: solubility (µM)

• O=C(C1CCN(c2ccc(Cl)c(C(F)(F)F)c2)C1)N1CC(F)(F)C1 (centres undefined) = 19
• O=c1[nH]nc(C2CCN(c3ccc(Cl)c(C(F)(F)F)c3)C2)o1 (centres undefined) = 69
• Cc1cc(C(=O)O)c(C)n1-c1cccc(C(C)C)c1F = 51

====

Procedure Summary: Efflux ratio of apparent permeability in MDCK2-MDR1 cells at 10 uM measured up to 120 mins by LC-MS/MS analysis
Format: ADME, cell-based, Canis lupus familiaris
Experimental Parameters: dog, MDCK-MDR1
Reported Property: efflux ratio at 2 h, 10 µM

* O=c1[nH]nc(C2CCN(c3ccc(Cl)c(C(F)(F)F)c3)C2)o1 (stereo not drawn) | 1.5
* Cc1cc(C(=O)O)c(C)n1-c1cccc(C(C)C)c1F | 0.93
* O=C(C1CCN(c2ccc(Cl)c(C(F)(F)F)c2)C1)N1CC(F)(F)C1 (stereo not drawn) | 1.2

====

Target Or System: Palmitoleoyl-protein carboxylesterase NOTUM (Homo sapiens, UniProt Q6P988, C330S)
Procedure Summary: Inhibition of human Notum (S81 to T451 residues) Cys330Ser mutant expressed in HEK293S GnTI cells at 100 uM using OPTS as substrate incubated for 40 mins by fluorescence based assay relative to control
Reported Property: inhibition at 100 µM

- Cc1cc(C(=O)O)c(C)[nH]1: < 20%
- Cc1cc(C(=O)O)c[nH]1: 50%
- Cc1[nH]ccc1C(=O)O: < 20%
- O=C(O)c1c[nH]c(C(F)(F)F)c1: < 20%
- Cc1c[nH]cc1C(=O)O: 50%
- Cc1cc(C(=O)O)c(C)n1C: 20 to 40%
- Cc1c(C(=O)O)cc(C(F)(F)F)n1Cc1ccccc1: 20 to 40%
- Cc1c[nH]c(C)c1C(=O)O: 50%
- O=C(O)c1cc[nH]c1: < 20%
